- System: HCT116 cells
- Run description: MTT cytotoxicity assay on HCT116
- Assay type: cell-based
- Measurement parameters: Homo sapiens, HCT-116, 48 h of treatment, read-out: IC50 value on HCT116 cells
- Experimental: Human colorectal carcinoma (HCT116) and African green monkey kidney epithelial cells (VERO) were procured from the National Centre for Cell Science, Pune, MH, India. […] Cytotoxic potential of the test compounds were assessed using MTT assay (Kumar et al., 2016[9]). […] The formazan crystals formed were solubilized using 100 % DMSO and the optical density was measured at 540 nm using micro plate reader (ELx800, BioTek Instruments Inc., Winooski, VT, USA).
Parameter measured: IC50

1. O=C(O)c1ccc(C=CC(=O)c2ccccc2O)cc1 ... < 200 µM
2. O=C(/C=C/c1ccc(O)cc1)c1ccccc1O ... < 200 µM
